System: Yap1 mRNA
Assay: Dose-dependent inhibition of human Yap1 in A-431 cells (Example 7, 10,000 cells per well, RTS36584)
Assay type: cell-based
Details: 4000.00 nM, A-431 cells, 10,000 cells per well, free uptake, approximately 48 hours
Strand notation (5' to 3'): a small letter for the sugar, then the base; units joined by * are phosphorothioate-linked, units joined directly phosphodiester-linked; [ ] holds rarer units or linkages, { } end groups; capitals alone tell only the bases. k = constrained ethyl (cEt); [5mC] = 5-methylcytosine; d = 2'-deoxy (DNA)
Known Yap1 mRNA, % UTC of a selection of substances
# output: bare number, implied unit % UTC

- substance: "715487 (kA*kT*kT*dA*d[5mC]*dT*dT*d[5mC]*dA*dT*dA*dG*d[5mC]*kT*kT*kA) [compound 715487]"
  unitAnnotation: "% UTC"
  Yap1 mRNA, % UTC: 4
- substance: "958544 (kG*k[5mC]*kT*dA*dA*dA*dT*dT*d[5mC]*dA*dA*d[5mC]*dT*kA*k[5mC]*k[5mC]; antisense) [compound 958544]"
  unitAnnotation: "% UTC"
  Yap1 mRNA, % UTC: 17
- substance: "958500 (kT*k[5mC]*kT*dA*dT*dA*dT*dT*dA*dG*dA*dG*dT*kA*kT*kG) [compound 958500]"
  unitAnnotation: "% UTC"
  Yap1 mRNA, % UTC: 16

Here is the next item to consider.
Quick check: Yap1 mRNA, % UTC of 958490 (kG*kT*kG*dA*d[5mC]*dA*dT*dG*dA*dA*dG*d[5mC]*dA*kT*k[5mC]*kT; antisense) [compound 958490] ? 13
